- Assay procedure: Acute toxicity in mice (i.v.)
- Assay type: in vivo
- Setup conditions: mouse, in vivo, iv; mice, i.v., death rate after 10 days of observation
Readout type: LD50 at 240 h

1) CC[C@]12CCCN3CCc4c(n(c5ccccc45)[C@@](O)(C(=O)OC)C1)[C@@H]32 (racemic) [Vincamine, (.-+.)-Vincamine]	62 mg/kg

====

- Assay procedure: Acute toxicity in mice (i.v.)
- Assay type: in vivo
- Setup conditions: mouse, in vivo, iv
Readout type: LD50 at 240 h (mg/kg)

1) COC(=O)[C@@]1(O)C[C@@H]2CCCN3CCc4c(n1c1ccccc41)[C@H]23 (relative stereo) [Deethylvincamine, (±) 20-Deethyl-vincamine]	40
